# test-summary: chemical genetic growth profiling, strain panel (AID 1159580);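 note: tested at 20 µM; growth read once vehicle control cultures reached saturation at 30 °C; 1 = growth at the plate median or of vehicle wells; lower values mean less growth of the strain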
# particulars: S. cerevisiae deletion strains, growth OD, locus YEL037C, strain rad23, hits give low values
In all, about 5,500 compounds went through this assay and about 2,000 (36%) were called active. About 18% were inconclusive and are not listed. The list shows a part of the results.
quantity: normalized growth
// response body must contain only the number

-- ask Value lookup for normalized growth; key = C[C@@H]1CC2C3CCC4=CC(=O)C=C[C@]4(C)[C@@]3(F)[C@@H](O)C[C@]2(C)[C@H]1C(=O)CO (some centres not stated)
-- reply 1

-- ask C=C1C(C2(C)C=CC(=O)C(C)(C)C2CC(=O)OC)CC[C@@]2(C)[C@H](c3ccoc3)OC(=O)C3OC132 (some centres not stated) ?
-- reply 0.989

-- ask Repeat with C=C1[C@H]2CC[C@@]3(C)[C@H](c4ccoc4)OC(=O)C[C@]13O[C@H]1C[C@H](O)C(C)(C)[C@H](CC(=O)OC)[C@]12C
-- reply 1.01

---

# test-summary: chemical genetic growth profiling, strain panel (AID 1159580);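 note: tested at 20 µM; growth read once vehicle control cultures reached saturation at 30 °C; 1 = growth at the plate median or of vehicle wells; lower values mean less growth of the strain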
# particulars: S. cerevisiae deletion strains, growth OD, locus YNL248C, strain rpa49, hits give low values
About 2,000 (36%) of roughly 5,500 compounds were called active. Inconclusive results (about 18%) are left out. This is one part of the list.
# Lookup of reported normalized growth keyed by entry
Please state the value as a number alone, without comment.

Use the examples below as a reference point.
-- ask Using the record for N[C@@H]1[C@@H](O)[C@H](O)[C@@H](CO)O[C@H]1O , report its normalized growth.
-- reply 1.03

-- ask Next record, please: CN(C)C(=O)Nc1ccc(Cl)c(Cl)c1
-- reply 1.02

Continuing:
-- ask // returns reported normalized growth for input O=c1cc(-c2ccccc2)oc2c(O)c(O)ccc12
-- reply 0.982

-- ask How about NNCCc1ccccc1 ?
-- reply 1.02

-- ask Record: S=P(N1CC1)(N1CC1)N1CC1
-- reply 0.999

-- ask Query CNCCCN1c2ccccc2CCc2ccccc21 next
-- reply 0.995

-- ask And CCCC(CCC)C(=O)O ?
-- reply 1.04

-- ask What do we get for O=C(O)CCCOc1ccc(Cl)cc1Cl ?
-- reply 0.941

-- ask Same thing, different compound: CC1CCC2(OC1)OC1CC3C4CCC5C[C@@H](O)CCC5(C)C4=CCC3(C)C1[C@@H]2C (stereo not given in full)
-- reply 1.01

---

# test-summary: chemical genetic growth profiling, strain panel (AID 1159580);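 note: tested at 20 µM; growth read once vehicle control cultures reached saturation at 30 °C; 1 = growth at the plate median or of vehicle wells; lower values mean less growth of the strain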
# particulars: S. cerevisiae deletion strains, growth OD, locus YPL240C, strain hsp82, hits give low values
The whole screen tested about 5,500 compounds, of which about 2,000 (36%) were called active. Roughly 18% stayed inconclusive and do not appear here. The list shows a part of the results.
normalized growth reference
Answer field: number only, no words.

Past entries and their recorded results:
-- ask Entry CC(CN(C)C)CN1c2ccccc2CCc2ccccc21 (centres undefined) has what normalized growth?
-- reply 0.978

-- ask // same read-out, input: O=c1cc(-c2ccccc2)oc2c(O)c(O)ccc12
-- reply 0.975

-- ask Would you kindly repeat that for N#C/C(=C\c1cccc(O)c1)C(=O)O ?
-- reply 0.986

-- ask # repeat for O=c1cc(-c2cc(O)c(O)c(O)c2)oc2cc(O)cc(O)c12
-- reply 1.01

-- ask Further, for N[C@@H]1[C@@H](O)[C@H](O)[C@@H](CO)O[C@H]1O ?
-- reply 1.02

-- ask Do the same for OC[C@H]1OC([S-])[C@H](O)[C@@H](O)[C@@H]1O.[Au+] (some centres undefined) please
-- reply 1.01

---
-- ask Which normalized growth is reported for this molecule? CNCCCN1c2ccccc2CCc2ccccc21
-- reply 1.01

-- ask Also C[C@@H](N)[C@@H](O)c1ccccc1 , if possible.
-- reply 1

-- ask Field entry: C[C@H](N)[C@H](O)c1cccc(O)c1
-- reply 1.01
